Field: kon. Provide a value for each of the binders that follow.
target: T1, recombinant human PVRIG-human IgG1 Fc fusion protein (human); experiment: SPR (Biacore), human PVRIG-human IgG1 Fc on chip, antibody in flow, 1:1 model
T1 construct: no linker is told; also called human PVRIG-Fc fusion protein
T1 sequence (chain, as listed by the source limits assumed): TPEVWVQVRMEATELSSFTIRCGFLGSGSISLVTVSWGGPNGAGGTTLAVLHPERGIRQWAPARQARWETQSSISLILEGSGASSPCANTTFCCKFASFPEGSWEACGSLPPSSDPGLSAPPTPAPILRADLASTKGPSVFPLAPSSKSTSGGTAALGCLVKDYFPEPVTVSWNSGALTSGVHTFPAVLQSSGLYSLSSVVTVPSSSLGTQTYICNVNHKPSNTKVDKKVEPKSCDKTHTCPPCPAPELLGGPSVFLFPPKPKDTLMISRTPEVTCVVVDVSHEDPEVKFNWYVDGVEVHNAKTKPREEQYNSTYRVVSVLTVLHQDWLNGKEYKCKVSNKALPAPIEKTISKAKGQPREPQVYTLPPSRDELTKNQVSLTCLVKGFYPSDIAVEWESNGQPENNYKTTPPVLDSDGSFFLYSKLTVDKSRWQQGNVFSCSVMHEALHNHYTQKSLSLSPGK
// return numeric value only (unit: M⁻¹ s⁻¹, not printed)

I have this binder here, Antibody 4-hu6 (antibody, human IgG4 S228P, kappa, V domains shown, Humanized Antibody 4; heavy chain IgG4 with S228P already in the entry; also called Antibody 4-hub [sic]) VH: EVQLVQSGAEVKKPGSSVKVSCKASGGTFSSFSIEWVRQAPGQGLEWIGEILPGSNSTNYNEKFKGKATFTADTSTNTAYMELSSLRSEDTAVYYCSSYWFAYWGQGTLVTVSS VL: DIVMTQSPDSLAVSLGERATINCKSSQSLLNSGNQKNYLAWYQQKPGQPPKLLIYGASTRESGVPDRFSGSGSGTDFTLTISSLQAEDVAVYYCQNAHSYPPTFGQGTKLEIKR , and I need its recorded kon.
281000

Follow-up item: Antibody 4-hu1 (antibody, human IgG4 S228P, kappa, V domains shown, Humanized Antibody 4; heavy chain IgG4 with S228P already in the entry) VH: EVQLVQSGAEVKKPGSSVKVSCKASGGTFSSFSIEWVRQAPGQGLEWMGEILPGSNSTNYNEKFKGRVTITADESTSTAYMELSSLRSEDTAVYYCARYWFAYWGQGTLVTVSS VL: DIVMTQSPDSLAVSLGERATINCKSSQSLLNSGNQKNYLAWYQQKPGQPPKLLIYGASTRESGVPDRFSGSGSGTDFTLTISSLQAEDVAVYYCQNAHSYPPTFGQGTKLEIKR
197000

Next binder up: Antibody 4-hu3 (antibody, human IgG4 S228P, kappa, V domains shown, Humanized Antibody 4; heavy chain IgG4 with S228P already in the entry) VH: EVQLVQSGAEVKKPGSSVKVSCKASGGTFSSFSIEWVRQAPGQGLEWMGEILPGSNSTNYNEKFKGRVTFTADESTSTAYMELSSLRSEDTAVYYCSSYWFAYWGQGTLVTVSS VL: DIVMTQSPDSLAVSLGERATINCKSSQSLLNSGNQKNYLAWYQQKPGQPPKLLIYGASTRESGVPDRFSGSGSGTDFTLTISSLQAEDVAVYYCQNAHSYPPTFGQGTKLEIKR
212000
